Values from paper PMC7024302

assay: Determination of peptide hydrophobicity with RP-HPLC (adjusted retention time); assay type: physicochemical; details: Table 2; nC = carbon atoms in fatty acid chain; RP-HPLC C18, linear 10–55% acetonitrile over 60 min, 0.1% TFA, 25.0 °C, UV 214 nm, triplicate
Residues, ends and D or L forms follow the SMILES beside them.
PROPERTY NAME: Adjusted retention time (min)

COMPOUND	Adjusted retention time / min
CCCCCCCCCCCCCC(=O)N[C@H](C(=O)N[C@@H](CCCNC(=N)N)C(=O)N[C@@H](CCCNC(=N)N)C(N)=O)[C@@H](C)CC [compound 38, C14-IRR-NH2] (HELM PEPTIDE1{[CCCCCCCCCCCCCC(=O)[*:2]].I.R.R.[am]}$$$$V2.0)	45.650
CCCCCCCCCCCCCC(=O)N[C@@H](CC(C)C)C(=O)N[C@@H](CCCNC(=N)N)C(=O)N[C@@H](CCCNC(=N)N)C(N)=O [compound 46, C14-LRR-NH2] (HELM PEPTIDE1{[CCCCCCCCCCCCCC(=O)[*:2]].L.R.R.[am]}$$$$V2.0)	46.441
CCCCCCCCCCCC(=O)N[C@@H](CCCC)C(=O)N[C@@H](CCCNC(=N)N)C(=O)N[C@@H](CCCNC(=N)N)C(N)=O [compound 65, C12-NleRR-NH2] (HELM PEPTIDE1{[CCCCCCCCCCCC(=O)[*:2]].[Nle].R.R.[am]}$$$$V2.0)	39.958
CCCCCCCCCCCC(=O)N[C@@H](CC(C)C)C(=O)N[C@@H](CCCNC(=N)N)C(=O)N[C@@H](CCCNC(=N)N)C(N)=O [compound 45, C12-LRR-NH2] (HELM PEPTIDE1{[CCCCCCCCCCCC(=O)[*:2]].L.R.R.[am]}$$$$V2.0)	39.821
